# method: Pharmacokinetic study of Example 1 in mouse (IV, IP, PO)
# Type: in vivo, Male C57BL/6 Mouse
# condition details: male, C57BL/6, mouse, plasma, iv, 5 mg/kg, IV 5 mg/kg; 5 min; mean
property name: concentration at 5 min
I'd appreciate it if you wrote the number followed by its unit.

Would you mind telling me what concentration at 5 min value was observed for Cc1ccc(Nc2nc(N/N=C/c3c[nH]c4ccccc34)nc(N3CCOCC3)n2)cc1 ?
1630 ng/mL

###

# method: Pharmacokinetic study of Example 3 in mouse (IV, IP)
# Assay type: in vivo, C57 Mouse
# condition details: C57, mouse, plasma, intraperitoneal, 30 mg/kg, 30 mg/kg IP; 2.00 h; individual animals 201M-203M; read-out: Plasma concentrations
property name: concentration at 2 h (ng/mL)
Kindly answer with a numeric value in ng/mL, unit omitted.

What measured concentration at 2 h goes with Cc1ccc(Nc2nc(N/N=C/c3c[nH]c4ccccc34)cc(N3CCOCC3)n2)cc1 ?
2830

###

# method: Pharmacokinetic study of Example 1 in mouse (IV, IP, PO)
# Format: in vivo, Male C57BL/6 Mouse
# condition details: male, C57BL/6, mouse, plasma, po, 30 mg/kg, PO 30 mg/kg; individual mice M7-M9; read-out: AUC0-inf
property name: AUC(0-inf)
The number alone won't do; follow it with the unit.

Bench note: what AUC(0-inf) did Cc1ccc(Nc2nc(N/N=C/c3c[nH]c4ccccc34)nc(N3CCOCC3)n2)cc1 [Example 1] show?
0.312 µg·h/mL

###

# method: Pharmacokinetic study of Example 1 in mouse (IV, IP, PO)
# Type: in vivo, Male C57BL/6 Mouse
# condition details: male, C57BL/6, mouse, plasma, ip, 30 mg/kg, IP 30 mg/kg; mean; read-out: Tmax
property name: Tmax (h)
Give the value, in units of h, as a plain number.

Requested read-out: Tmax. Entry: Cc1ccc(Nc2nc(N/N=C/c3c[nH]c4ccccc34)nc(N3CCOCC3)n2)cc1
1.33

###

# method: Pharmacokinetic study of Example 3 in mouse (IV, IP)
# Assay type: in vivo, C57 Mouse
# condition details: C57, mouse, plasma, iv, 5 mg/kg, 5 mg/kg IV; mean; read-out: Cmax
property name: Cmax (ng/mL)
# output: bare number, implied unit ng/mL

# query: Cmax of entry Cc1ccc(Nc2nc(N/N=C/c3c[nH]c4ccccc34)cc(N3CCOCC3)n2)cc1
6900

###

# method: Pharmacokinetic study of Example 3 in mouse (IV, IP)
# Format: in vivo, C57 Mouse
# condition details: C57, mouse, plasma, ip, 30 mg/kg, 30 mg/kg IP; mean; read-out: HL_Lambda_z (T1/2, h) (converted)
property name: half-life (h)
Your answer should be a plain number; it is taken to be in h.

Can you look up the measured half-life of Cc1ccc(Nc2nc(N/N=C/c3c[nH]c4ccccc34)cc(N3CCOCC3)n2)cc1 for me?
5.55

###

# Tested on: U251
# method: U251 Vacuolization Assay (24h)
# Assay type: cell-based
# condition details: Homo sapiens, U-251
pEC50: −log10 of the molar value.
Listing: pEC50 of selected compounds

Cc1ccc(Nc2nc(N/N=C/c3c[nH]c4ccccc34)nc(N3CCCC3)n2)cc1 ... < 4.30
Nc1ccc(Nc2nc(N/N=C/c3c[nH]c4ccccc34)nc(N3CCOCC3)n2)cc1 ... ≥ 6.00
Cc1ccc(Nc2cc(N3CCOCC3)nc(N/N=C/c3c[nH]c4ccccc34)n2)cc1 ... 5.00 to 6.00

Now consider the entry below.
Quick one: pEC50 for Cc1ccccc1Nc1nc(N/N=C/c2c[nH]c3ccccc23)nc(N2CCOCC2)n1 ?
≥ 6.00
